Exercise: for every item that follows, state its recorded solubility kinetic.
ASSAY METHOD TEXT: SUPPLEMENTARY: Lyophilisation Solubility Assay (LYSA)
Format: physicochemical
CONDITION DESCRIPTION: read-out: Kinetic_solubility

Worked examples, 2 compounds total:
SMILES RECORD	solubility kinetic
O=C(COc1ccccc1)N1CCCC[C@@H]1c1noc(C2CCCCC2)n1	< 1 µg/mL
COc1ccc(Cl)cc1S(=O)(=O)N1CCc2ccc(C#Cc3ccc(C(=O)O)cc3)cc21	< 1 µg/mL

Would you kindly look at the next entry?
QUERY: Entry CN(C)C(=O)CCC(=O)Nc1cc(F)cc(-c2noc([C@H]3CCCCN3C(=O)COc3ccccc3)n2)c1 : reported solubility kinetic = ?
RESULT: < 1 µg/mL

---

ASSAY METHOD TEXT: SUPPLEMENTARY: Lipophilicity (log D) Determination by high-throughput shake-flask
Assay type: physicochemical
CONDITION DESCRIPTION: octanol/water
RESULT TYPE: logD
Answers are plain numbers.

SMILES RECORD	logD
COc1ccc(Cl)cc1S(=O)(=O)c1c[nH]c2ccc(C(=O)Nc3ccc(CC(=O)O)cc3)cc12	0.17
O=C(COc1ccccc1)N1CCCC[C@@H]1c1noc(-c2cccc3[nH][nH]c(=O)c23)n1	2.53
CCOC(=O)c1cncc(-c2noc([C@H]3CCCCN3C(=O)COc3ccccc3)n2)c1	3.38
CCOc1ccc(C(=O)Nc2ccc(C(=O)O)c(F)c2)cc1N(CCS(=O)O)S(=O)(=O)c1cc(Cl)ccc1OC	-1.31

Field: logD. Fill in for each record below.
1. COc1ccc(Cl)cc1S(=O)(=O)N1CCOc2c(F)cc(C(=O)Nc3ccc(C(=O)O)c(F)c3)cc21
2. O=C([C@H]1CCCCN1C(=O)COc1ccccc1)N1CCc2ccccc2C1
3. O=C(COc1ccccc1)N1CCCC[C@@H]1c1noc(-c2ccc(Cl)nc2)n1

RESULT:
1: 0.52; 2: 2.97; 3: 2.98

Field: logD. Fill in for each record below.
1. O=C(COc1ccccc1)N1CCCC[C@@H]1c1nc(-c2cc[nH]c(=O)c2)no1
2. NS(=O)(=O)c1ccc2c(c1)CN(C(=O)[C@H]1CCCCN1C(=O)COc1ccccc1)CC2

RESULT:
[1.9, 1.41]

---

TESTED TARGET: Carnitine O-palmitoyltransferase 2, mitochondrial (Rattus norvegicus)
Sequence (P18886 whole entry): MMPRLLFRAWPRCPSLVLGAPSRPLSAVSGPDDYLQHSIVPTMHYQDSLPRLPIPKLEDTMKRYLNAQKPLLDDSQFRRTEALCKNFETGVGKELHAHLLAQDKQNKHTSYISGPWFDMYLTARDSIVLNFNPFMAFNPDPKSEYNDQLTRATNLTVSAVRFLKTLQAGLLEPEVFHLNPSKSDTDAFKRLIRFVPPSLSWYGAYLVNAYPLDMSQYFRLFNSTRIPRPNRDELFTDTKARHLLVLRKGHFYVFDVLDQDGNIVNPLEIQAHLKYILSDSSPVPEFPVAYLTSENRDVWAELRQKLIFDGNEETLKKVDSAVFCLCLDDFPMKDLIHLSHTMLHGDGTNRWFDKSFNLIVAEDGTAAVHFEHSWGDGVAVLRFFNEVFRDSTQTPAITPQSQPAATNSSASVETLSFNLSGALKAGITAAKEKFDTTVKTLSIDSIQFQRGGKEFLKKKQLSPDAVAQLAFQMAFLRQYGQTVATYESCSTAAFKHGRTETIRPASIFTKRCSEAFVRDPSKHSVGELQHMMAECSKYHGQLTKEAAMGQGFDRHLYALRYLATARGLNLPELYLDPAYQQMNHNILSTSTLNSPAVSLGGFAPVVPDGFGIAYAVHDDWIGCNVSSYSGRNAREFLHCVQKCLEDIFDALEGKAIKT
Exercise: for every item that follows, state its recorded IC50.

Worked examples, 3 compounds total:
COMPOUND	TESTED TARGET	IC50
COc1ccc(Cl)cc1S(=O)(=O)N1CC[S+]([O-])c2ccc(C(=O)Nc3ccc(CC(=O)O)cc3)cc21 (centres undefined)	Carnitine O-palmitoyltransferase 2, mitochondrial (Rattus norvegicus)	> 100 µM
CC(=O)c1ccc(-c2nc([C@H]3CCCCN3C(=O)COc3ccccc3)no2)cc1	Carnitine O-palmitoyltransferase 2, mitochondrial (Rattus norvegicus)	> 100 µM
O=C([C@H]1CCCCN1C(=O)COc1ccccc1)N1Cc2cc(F)c(OC3CCOCC3)cc2C1	Carnitine O-palmitoyltransferase 2, mitochondrial (Rattus norvegicus)	1.31 µM

QUERY: Find IC50 (Carnitine O-palmitoyltransferase 2, mitochondrial (Rattus norvegicus)) for the entry COc1ccc(Cl)cc1S(=O)(=O)c1c[nH]c2ccc(C(=O)Nc3ccccc3)cc12
RESULT: > 100 µM

---

Exercise: for every item that follows, state its recorded IC50.
TESTED TARGET: Carnitine O-palmitoyltransferase 1, liver isoform (Rattus norvegicus)
Sequence (P32198 whole entry, canonical isoform): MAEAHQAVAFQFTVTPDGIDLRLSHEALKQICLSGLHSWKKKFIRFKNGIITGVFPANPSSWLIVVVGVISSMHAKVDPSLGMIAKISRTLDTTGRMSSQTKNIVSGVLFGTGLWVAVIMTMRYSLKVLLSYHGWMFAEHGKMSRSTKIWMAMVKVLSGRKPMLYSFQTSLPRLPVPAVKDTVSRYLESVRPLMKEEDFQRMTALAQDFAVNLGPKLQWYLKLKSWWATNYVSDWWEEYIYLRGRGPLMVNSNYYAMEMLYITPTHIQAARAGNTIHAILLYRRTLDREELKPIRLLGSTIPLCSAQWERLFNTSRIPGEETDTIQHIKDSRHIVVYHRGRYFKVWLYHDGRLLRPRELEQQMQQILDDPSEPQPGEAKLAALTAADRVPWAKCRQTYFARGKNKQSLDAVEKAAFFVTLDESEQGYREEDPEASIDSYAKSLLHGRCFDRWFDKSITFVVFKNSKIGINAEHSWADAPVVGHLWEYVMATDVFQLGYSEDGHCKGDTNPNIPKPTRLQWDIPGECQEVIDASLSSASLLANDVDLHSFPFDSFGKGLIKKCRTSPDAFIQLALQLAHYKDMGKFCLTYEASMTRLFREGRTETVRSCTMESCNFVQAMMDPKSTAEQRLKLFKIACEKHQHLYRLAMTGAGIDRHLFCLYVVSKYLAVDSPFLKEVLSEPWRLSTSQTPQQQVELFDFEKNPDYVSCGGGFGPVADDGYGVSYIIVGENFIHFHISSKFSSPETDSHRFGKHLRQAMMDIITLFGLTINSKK
ASSAY METHOD TEXT: SUPPLEMENTARY: Inhibition of Carnitine palmitoyltransferase 1, liver isoform
Answers are plain numbers, in nM.

Worked examples, 2 compounds total:
SMILES RECORD	TESTED TARGET	UNIT	IC50
O=C1COc2ccc(-c3noc([C@H]4CCCCN4C(=O)COc4ccccc4)n3)cc2N1	Carnitine O-palmitoyltransferase 1, liver isoform (Rattus norvegicus)	nM	69.4
COc1ccc(Cl)cc1CN1C(=O)C2(CC2)c2ccc(C(=O)Nc3ccc(C(=O)O)cc3)cc21	Carnitine O-palmitoyltransferase 1, liver isoform (Rattus norvegicus)	nM	148

Field: IC50. Fill in for each record below.
1. O=C1CCCN1c1cccc(-c2noc([C@H]3CCCCN3C(=O)COc3ccccc3)n2)c1
2. O=C1CN(NC(=O)c2cccc(-c3n[nH]c([C@H]4CCCCN4C(=O)COc4ccccc4)n3)c2)C(=O)N1
3. O=C(COc1ccccc1)N1CCCC[C@@H]1c1nc(-c2cccnc2)cs1
4. O=C(COc1ccccc1)N1CCCC[C@@H]1c1noc(-c2cccc3[nH]cnc23)n1
5. NC(=O)c1ccc(-c2noc([C@H]3CCCCN3C(=O)COc3ccccc3)n2)cc1

RESULT:
62.1
574
214
189
255

---

ASSAY METHOD TEXT: SUPPLEMENTARY: Lyophilisation Solubility Assay (LYSA)
Format: physicochemical
CONDITION DESCRIPTION: read-out: Kinetic_solubility
RESULT TYPE: solubility kinetic (µg/mL)
Answers are plain numbers, in µg/mL.

Field: solubility kinetic. Fill in for each record below.
1. COc1ccc(Cl)cc1S(=O)(=O)N1COc2c(C)cc(C(=O)Nc3ccc(CC(=O)O)cc3)cc21
2. O=C(Nc1ccc(C(=O)O)c(F)c1)c1ccc2c(c1)N(S(=O)(=O)c1cccc(C(F)(F)F)c1)CCC2
3. O=C1COc2ccc(-c3noc([C@H]4CCCCN4C(=O)COc4ccccc4)n3)cc2N1
4. NC(=O)c1ccc(C#C[C@H]2CCCCN2C(=O)COc2ccccc2)cc1
5. COc1ccc(Cl)cc1S(=O)(=O)N1CCOc2ccc(C(=O)Nc3ccc(-c4noc(=O)[nH]4)cc3)cc21
6. O=C(COc1ccccc1)N1CCCCC1c1cc(-c2ccccc2)n[nH]1 (stereo not given)

RESULT:
[509, 10, 10, 18, 1, 7]

Field: solubility kinetic. Fill in for each record below.
1. Cc1cc(C)cc(S(=O)(=O)N2CCSc3ccc(C(=O)Nc4ccc(C(=O)O)cc4)cc32)c1
2. CCN(c1cc(C(=O)Nc2nc(CC(=O)O)cs2)cc2c1OCO2)S(=O)(=O)c1cc(Cl)ccc1OC
3. COc1ccc(Cl)cc1S(=O)(=O)N1CCOc2c(Cl)cc(C(=O)Nc3ccc(CC(=O)O)cc3)cc21
4. O=C(COc1ccccc1)N1CCCC[C@@H]1c1noc(-c2ccc3cnccc3n2)n1

RESULT:
125
102
44
82

Field: solubility kinetic. Fill in for each record below.
1. O=C1Cc2cc(-c3noc(C4C5CC5CN4C(=O)COc4ccccc4)n3)ccc2N1 (stereo not given)
2. Cc1cc(-c2noc([C@H]3CCCCN3C(=O)COc3ccccc3)n2)n(C)n1

RESULT:
1: 38; 2: 30

---

ASSAY METHOD TEXT: SUPPLEMENTARY: PAMPA permeability assay
Type: physicochemical
CONDITION DESCRIPTION: read-out: Permeability
Please enter Yes where Papp is greater than or equal to 2 ×10⁻⁶ cm/s, and No where it is lower.

Reference set (5 entries):
SMILES RECORD	GROUP LABEL
CC(=O)Nc1cccc(-c2nc([C@H]3CCCCN3C(=O)COc3ccccc3)no2)c1	Yes
COc1ccc(Cl)cc1S(=O)(=O)N1CCNc2ccc(C(=O)Nc3ccc(C(=O)O)cc3)cc21	No
COc1ccc(Cl)cc1Sc1c[nH]c2ccc(C(=O)Nc3ccc(C(=O)O)cc3)cc12	No
CN(Cc1ccccc1)C(=O)[C@H]1CCCCN1C(=O)COc1ccccc1	Yes
CS(=O)(=O)NCc1cccc(-c2nc([C@H]3CCCCN3C(=O)COc3ccccc3)no2)c1	No

QUERY: Does the molecule Cc1cc(-c2noc([C@H]3CCCCN3C(=O)COc3ccccc3)n2)no1 have recorded Papp that is 2 ×10⁻⁶ cm/s or more?
RESULT: Yes

QUERY: Does the molecule O=C(O)c1ccc(NC(=O)c2ccc3c(c2)N(S(=O)(=O)c2cccc(Cl)c2)CCS3)cc1 have recorded Papp that is 2 ×10⁻⁶ cm/s or more?
RESULT: Yes

QUERY: Does the molecule O=C(COc1ccccc1)N1CCCC[C@@H]1c1nc(-c2cccc(O)c2)no1 have recorded Papp that is 2 ×10⁻⁶ cm/s or more?
RESULT: No

---

Exercise: for every item that follows, state its recorded Papp.
ASSAY METHOD TEXT: SUPPLEMENTARY: PAMPA permeability assay
Type: physicochemical
CONDITION DESCRIPTION: read-out: Permeability
Could you kindly put the unit after your number?

SMILES RECORD	Papp
Cc1nn(C)c(-c2noc([C@H]3CCCCN3C(=O)COc3ccccc3)n2)c1Cl	1.68 ×10⁻⁶ cm/s

Field: Papp. Fill in for each record below.
1. COc1ccc(Cl)cc1S(=O)(=O)N1CCCc2ccc(Oc3ccc(CC(=O)O)cc3)cc21
2. COc1ccc(Cl)cc1S(=O)(=O)N1CCS(=O)(=O)c2ccc(C(=O)Nc3ccc(C(=O)O)cc3)cc21

RESULT:
1: 0.77 ×10⁻⁶ cm/s; 2: 1.9 ×10⁻⁶ cm/s
